- System: Fibroblast
- METHOD DESCRIPTION: Multiplex assay against human fibroblast
- Type: toxicity, cell-based
- MEASUREMENT CONTEXT: 48 h, 1 µM, compound concentration 1 uM, replicate 2
# Population Tubulin-Different-Phenotype (%) per entry
Include the unit after the number when you answer.

Previously resolved entries follow.
COMPOUND	MEASURED RESULT
CN1CCN2c3ncccc3Cc3ccccc3C2C1 (stereo not drawn) [MIRTAZAPINE]	56%
O=C(NCC(=O)N1CC[C@H](N[C@H]2CC[C@@](O)(c3ccc(-c4ncccn4)cn3)CC2)C1)c1cccc(C(F)(F)F)c1 [PF-4136309]	46%
O=C1COc2nccc(-c3ccccc3F)c2CN1Cc1cc(C(F)(F)F)cc(C(F)(F)F)c1	25%
Cc1ccccc1C(=O)Nc1ccc(C(=O)N2CCCC(N(C)C)c3ccccc32)cc1.Cl (stereo not drawn)	54%

Given C[C@H](NC(=O)c1c(C(F)F)nn(C)c1Oc1cccc(C(F)(F)F)c1)c1ccc(C(=O)O)cc1 [PALUPIPRANT] , state its recorded Population Tubulin-Different-Phenotype (%).
53%

Can you look up the measured Population Tubulin-Different-Phenotype (%) of CC(=O)NCCc1c(Cc2ccccc2)[nH]c2ccccc12 [LUZINDOLE] for me?
46%

What does the record list as Population Tubulin-Different-Phenotype (%) for COc1c(C)cc(NC(=O)c2nn(Cc3ccc(F)cc3)c3c2CN(C(=O)c2ccc[nH]2)C[C@]3(C)C(N)=O)cc1C ?
69%

Which Population Tubulin-Different-Phenotype (%) is reported for this compound? CSc1ccccc1N1CCN(CCCCCC(=O)NC2CCCc3ccccc32)CC1.Cl (stereo not drawn)
64%

Any idea what Population Tubulin-Different-Phenotype (%) was measured for Cc1nc2ccc(Oc3ccc(F)cc3)cc2c(=O)n1C[C@H]1CCCN(C(C)C)C1.Cl ?
68%

Fill blank: measured Population Tubulin-Different-Phenotype (%) of the compound CCNC1(C(N)=O)CCN(c2ncnc3c2nc(-c2ccccc2Cl)n3-c2ccc(Cl)cc2)CC1 [OTENABANT] is ____.
72%

###

- System: U2OS
- METHOD DESCRIPTION: Multiplex assay against U2OS
- Format: toxicity, cell-based
- MEASUREMENT CONTEXT: human, 12 h, 1 µM, compound concentration 1 uM, replicate 2
# Population Tubulin-Different-Phenotype (%) values compiled below
Could you give me the number in %? Just the number is fine.

MOLECULE	UNIT OF MEASURE	MEASURED RESULT
CCCn1c(=O)c2[nH]c(C3CCCC3)nc2n(CCC)c1=O	%	5
C[C@H](NC(=O)c1c(C(F)F)nn(C)c1Oc1cccc(C(F)(F)F)c1)c1ccc(C(=O)O)cc1 [PALUPIPRANT]	%	2
COc1ccc2c(c1)C(C(=O)N(Cc1ccc(N(C)C)cc1)c1ccc(C(C)C)cc1)CCC2.Cl (stereo unspecified)	%	2
Cc1ccc(C(C)(O)c2nc3ccccc3s2)c(C)c1 (stereo unspecified)	%	5
O=C(O)Cc1ccccc1Nc1c(Cl)cccc1Cl [DICLOFENAC]	%	2

Requested field: Population Tubulin-Different-Phenotype (%). Item: CC(=O)NCCc1c(Cc2ccccc2)[nH]c2ccccc12 [LUZINDOLE]
2

###

- Tested on: U2OS
- METHOD DESCRIPTION: Multiplex assay against U2OS
- Assay type: toxicity, cell-based
- MEASUREMENT CONTEXT: human, 24 h, 10 µM, compound concentration 10 uM, replicate 1
MEASURE NAME: Population Normal (%)
Could you give me the number in %? Just the number is fine.

The examples below pair each entry with its known result.
COMPOUND	TGT	Population Normal (%)
O=C(NCCO)c1cccc(-c2cc(Nc3ccc(OC(F)(F)F)cc3)ncn2)c1	U2OS	95
CN(C)c1ccnc2sc3c(=O)n(N4CCCCCC4)cnc3c12	U2OS	95
c1cc(OCCCN2CCCCC2)ccc1CN1CCCCC1 [JNJ-5207852]	U2OS	98
O=C(O)Cc1ccccc1Nc1c(Cl)cccc1Cl [DICLOFENAC]	U2OS	99
COc1c(C)cc(NC(=O)c2nn(Cc3ccc(F)cc3)c3c2CN(C(=O)c2ccc[nH]2)C[C@]3(C)C(N)=O)cc1C	U2OS	87

API: value(readout= Population Normal (%), system= U2OS, query= Cc1ccc(C(C)(O)c2nc3ccccc3s2)c(C)c1 (stereo unspecified) )
98

###

Reported Population Membrane Permeable-Phenotype (%) values are given for each entry in this list.
- Tested on: Fibroblast
- METHOD DESCRIPTION: Multiplex assay against human fibroblast
- Type: toxicity, cell-based
- MEASUREMENT CONTEXT: 48 h, 1 µM, compound concentration 1 uM, replicate 2
Kindly answer with a numeric value in %, unit omitted.

Past entries and their recorded results:
COMPOUND	MEASURED RESULT
CN(C)c1ccnc2sc3c(=O)n(N4CCCCCC4)cnc3c12	6
Cl.Clc1ccc2nsnc2c1NC1=NCCN1 [TIZANIDINE HYDROCHLORIDE]	6
C[C@@H]1C[C@H]2[C@@H]3CCC4=CC(=O)C=C[C@]4(C)[C@@]3(F)[C@@H](O)C[C@]2(C)[C@@]1(O)C(=O)CO	4

Requested field: Population Membrane Permeable-Phenotype (%). Item: C[C@H](NC(=O)c1c(C(F)F)nn(C)c1Oc1cccc(C(F)(F)F)c1)c1ccc(C(=O)O)cc1
4

Value lookup for Population Membrane Permeable-Phenotype (%); key = C[C@H]1[C@H]2CC[C@H]3[C@@H]4CC=C5C[C@@H](N(C)C)CC[C@]5(C)[C@H]4CC[C@]23CN1C
17

Need Population Membrane Permeable-Phenotype (%), item CCOc1c2c(c(OCC)c3ncccc13)CN(c1ccc(CS(=O)(=O)NC(=O)Cc3ccccc3OC)cc1C)C2=O
5

I am curious: what Population Membrane Permeable-Phenotype (%) value has been reported for Cc1ccc(/C(=C\CN2CCCC2)c2ccccn2)cc1 ?
7

Need Population Membrane Permeable-Phenotype (%) of CCNC1(C(N)=O)CCN(c2ncnc3c2nc(-c2ccccc2Cl)n3-c2ccc(Cl)cc2)CC1 , thanks.
13

###

Population Healthy Nuclei (%) values, listed per item
- System: HEK-293T
- METHOD DESCRIPTION: Multiplex assay against HEK293T
- Type: toxicity, cell-based
- MEASUREMENT CONTEXT: human, 12 h, 1 µM, compound concentration 1 uM, replicate 2
The reply should contain only the number, in %.

COMPOUND	UNIT OF MEASURE	Population Healthy Nuclei (%)
Cc1ccc(-c2ccc(F)cc2COc2ccc(CCC(=O)O)cc2)cc1	%	77

Attention now turns to another entry.
So what's the measured Population Healthy Nuclei (%) for this one? CCCN1CCC[C@@H]2Cc3n[nH]cc3C[C@H]21.Cl [QUINPIROLE HYDROCHLORIDE]
82

###

Catalogue of molecules with associated Population Mitotic Cells (%)
- Test system: HEK-293T
- METHOD DESCRIPTION: Multiplex assay against HEK293T
- Type: toxicity, cell-based
- MEASUREMENT CONTEXT: human, 12 h, 1 µM, compound concentration 1 uM, replicate 2
Only the number, expressed in %, is required.

SMILES REPR	Population Mitotic Cells (%)
Cc1nc2ccc(Oc3ccc(F)cc3)cc2c(=O)n1C[C@H]1CCCN(C(C)C)C1.Cl	38
Cc1ccc(/C(=C\CN2CCCC2)c2ccccn2)cc1	50
O=C(O)Cc1ccccc1Nc1c(Cl)cccc1Cl	47

// below: Population Mitotic Cells (%) requested for another molecule
// lookup Population Mitotic Cells (%) for CCOc1c2c(c(OCC)c3ncccc13)CN(c1ccc(CS(=O)(=O)NC(=O)Cc3ccccc3OC)cc1C)C2=O
64

###

- Test system: U2OS
- METHOD DESCRIPTION: Multiplex assay against U2OS
- Type: toxicity, cell-based
- MEASUREMENT CONTEXT: human, 48 h, 10 µM, compound concentration 10 uM, replicate 2
MEASURE NAME: Population Apoptotic (%)

COMPOUND	MEASURED RESULT
CC[C@H]1OC(=O)[C@H](C)[C@@H](O[C@H]2C[C@@](C)(OC)[C@@H](O)[C@H](C)O2)[C@H](C)[C@@H](O[C@@H]2O[C@H](C)C[C@H](N(C)C)[C@H]2O)[C@@]2(C)CC(C)=C(O2)[C@H](C)[C@@H](O)[C@]1(C)O	83%
CCCN1CCC[C@@H]2Cc3n[nH]cc3C[C@H]21.Cl [QUINPIROLE HYDROCHLORIDE]	91%
CSCC[C@H](NC=O)C(=O)N[C@@H](CC(C)C)C(=O)N[C@@H](Cc1ccccc1)C(=O)O	100%
O=C(NCCO)c1cccc(-c2cc(Nc3ccc(OC(F)(F)F)cc3)ncn2)c1	91%
Cl.Clc1ccc2nsnc2c1NC1=NCCN1 [TIZANIDINE HYDROCHLORIDE]	76%

Under U2OS: Population Apoptotic (%) value of CN1CCN2c3ncccc3Cc3ccccc3C2C1 (stereo not drawn) ?
100%

Lookup: Population Apoptotic (%) / U2OS / COc1cc(C(=O)N(CCCc2ccccc2)Cc2ccc(CC(=O)O)cc2)cc(OC)c1C
94%

What reported Population Apoptotic (%) corresponds to Cc1ccc(-c2ccc(F)cc2COc2ccc(CCC(=O)O)cc2)cc1 on U2OS?
88%
